// data source = the OPERA property sets (Mansouri et al. 2018)

The entries below come with measured logP values attached.
EXPERIMENTAL_READOUT: logP

- COMPOUND: "Nc1ncnc2c1ncn2C1OC2COP(=O)(OCc3ccccc3)OC2C1O (stereo not drawn)"
  EXPERIMENTAL_READOUT: "logP"
  OBSERVED: 1.15
- COMPOUND: "N=C(N)NN=C1C=CC(=NNC(N)=O)C=C1"
  EXPERIMENTAL_READOUT: "logP"
  OBSERVED: 1.56
- COMPOUND: "CCC(C)CO (stereo not drawn)"
  EXPERIMENTAL_READOUT: "logP"
  OBSERVED: 1.29
- COMPOUND: "Cc1cn([C@H]2C[C@H](N=[N+]=[N-])[C@@H](CO)O2)c(=O)[nH]c1=S"
  EXPERIMENTAL_READOUT: "logP"
  OBSERVED: 1.07
- COMPOUND: "COC1=CC(=O)C=C(OC)C1=O"
  EXPERIMENTAL_READOUT: "logP"
  OBSERVED: -0.06
- COMPOUND: "Cc1cccc(C)c1C#[N+][O-]"
  EXPERIMENTAL_READOUT: "logP"
  OBSERVED: 2.74
- COMPOUND: "CCn1cc(C(=O)O)c(=O)c2cc(F)c(N3CCNCC3)c(F)c21"
  EXPERIMENTAL_READOUT: "logP"
  OBSERVED: -0.57
- COMPOUND: "Nc1ccc([N+](=O)[O-])cn1"
  EXPERIMENTAL_READOUT: "logP"
  OBSERVED: 0.65
- COMPOUND: "COc1cccc(OC)c1OCCN(C)C"
  EXPERIMENTAL_READOUT: "logP"
  OBSERVED: 1.05
- COMPOUND: "CC(C)N(C(=O)SCC(Cl)=CCl)C(C)C"
  EXPERIMENTAL_READOUT: "logP"
  OBSERVED: 4.49
- COMPOUND: "C=CCOc1ccccc1OCC(CNC(C)C)OC(=O)CCC (stereo not drawn)"
  EXPERIMENTAL_READOUT: "logP"
  OBSERVED: 3.95
- COMPOUND: "Cc1ccccc1NCc1cnc2nc(N)nc(N)c2c1C"
  EXPERIMENTAL_READOUT: "logP"
  OBSERVED: 1.98
- COMPOUND: "ClC=C1C2CC(C(Cl)C2(Cl)Cl)C1(C(Cl)Cl)C(Cl)Cl (stereo not drawn)"
  EXPERIMENTAL_READOUT: "logP"
  OBSERVED: 5.49
